Recorded values, source PubChem BioAssay (NCI).

# Tested on: A549 NSCLC
# measurement_notes: NCI tumour cell line growth inhibition, 48 h
endpoint: TGI (µM)
Numbers only, in µM.

compound_structure: CCC[CH2][Sn]([CH2]CCC)([O]C(=O)c1ccc(OC)c(OC)c1OC)[O][Sn]([CH2]CCC)([CH2]CCC)[O]C(=O)c1ccc(OC)c(OC)c1OC
TGI, µM: 5.42

Moving on to the next molecule.
query: Quick check: TGI of CN1CCN(c2ccc(Nc3cc(-c4cccc(-n5ccc6cc(C7CC7)cc(F)c6c5=O)c4CO)cn(C)c3=O)nc2)CC1 ?
result: 19.2

====

Would you kindly list TGI for each of these compounds?
# Tested on: NCI-H226 lung
# measurement_notes: NCI tumour cell line growth inhibition, 48 h

compound: COC(=O)/C(=N\NC(N)=S)C(C(=O)OC)C(=O)C(=O)Nc1ccc(C)cc1 (stereo not given)
system: NCI-H226 lung
TGI: > 100 µM

compound: COc1cc2c(cc1OC)C1C3CCCCC3CCN1CC2 (stereo not given)
system: NCI-H226 lung
TGI: > 100 µM

compound: CC(C)(C)c1cc(C(P(=O)(O)O)P(=O)(O)O)cc(C(C)(C)C)c1O
system: NCI-H226 lung
TGI: > 100 µM

compound: O=C(/C=C/c1ccc[nH]1)c1ccc(-n2ccc(C(F)(F)F)n2)cc1
system: NCI-H226 lung
TGI: > 100 µM

Okay, now this compound:
query: Which TGI reading was recorded for the compound COC(=O)[C@]12CC[C@@H](C)[C@H](C)[C@@H]1C1=CC[C@@H]3[C@@]4(C)C[C@@H](O)[C@H](O)[C@@](C)(CO)C4=CC[C@@]3(C)[C@]1(C)CC2 ?
result: 40.4 µM
